Target: T1, IL-23R on human cells (IL-23R-expressing DB cells; human NK cells) (human, UniProt Q5VWK5 24-629)
T1 sequence (looked up): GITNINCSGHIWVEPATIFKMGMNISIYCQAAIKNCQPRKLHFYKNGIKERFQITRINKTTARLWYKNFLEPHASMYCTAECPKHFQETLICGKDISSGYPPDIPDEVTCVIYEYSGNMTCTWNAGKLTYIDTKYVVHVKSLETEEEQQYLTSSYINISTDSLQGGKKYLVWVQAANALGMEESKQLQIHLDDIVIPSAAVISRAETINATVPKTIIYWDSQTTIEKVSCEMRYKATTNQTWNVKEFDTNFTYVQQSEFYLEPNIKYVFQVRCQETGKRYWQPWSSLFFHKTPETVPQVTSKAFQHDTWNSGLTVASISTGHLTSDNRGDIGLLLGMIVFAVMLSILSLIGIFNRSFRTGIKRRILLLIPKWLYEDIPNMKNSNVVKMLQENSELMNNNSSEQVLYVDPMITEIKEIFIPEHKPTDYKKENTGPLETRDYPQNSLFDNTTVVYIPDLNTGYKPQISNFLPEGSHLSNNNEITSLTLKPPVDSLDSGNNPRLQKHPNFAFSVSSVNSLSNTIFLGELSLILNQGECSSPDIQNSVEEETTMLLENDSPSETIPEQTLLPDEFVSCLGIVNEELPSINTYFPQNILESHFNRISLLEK
Assay: cell-based or functional assay
*1 amine or outer side, *2 acyl side, *3 side chain or, on linkers, in order; H or OH if unused. Bridges are numbered along the chain shown (N, C = ends). [ ]: non-standard residue; d: D form. Abu(4-yl) = O=C([C@H](CC[*:3])N[*:1])[*:2]; 2Nal = N[C@@H](Cc1ccc2ccccc2c1)C(=O)O; AEF = NCCOc1ccc(C[C@H](N)C(=O)O)cc1; hArg = N=C(N)NCCCC[C@H](N)C(=O)O; αMeK = C[C@](N)(CCCCN)C(=O)O; Abu = CC[C@H](N)C(=O)O; Aib = CC(C)(N)C(=O)O
Readout Label: pStat3 HTRF IC50

Below are some binders; for each one, tell me its pStat3 HTRF IC50.
1. Ac-[Abu]QTWQC[AEF][2Nal][αMeK][hArg]NG-NH2 (thioether 1-6) [Ac-Cyclo-[[Abu]-QTWQC]-[Phe[4-(2-aminoethoxy)]]-2-Nal]-[α-MeLys]-hRNG-NH2]
2. Ac-[Abu]QTWQC[AEF][2Nal][Aib]KNG-NH2 (thioether 1-6) [Ac-Cyclo-[[Abu]-QTWQC]-[Phe[4-(2-aminoethoxy)]]-[2-Nal]-[Aib]-KNG-NH2]
3. Ac-L[Abu(4-yl)]QTWQC[AEF][2Nal][αMeK]ENN-NH2 (thioether 2-7; SMILES CC(=O)N[C@@H](CC(C)C)C(=O)N[C@H]1CCSC[C@@H](C(=O)N[C@@H](Cc2ccc(OCCN)cc2)C(=O)N[C@@H](Cc2ccc3ccccc3c2)C(=O)N[C@@](C)(CCCCN)C(=O)N[C@@H](CCC(=O)O)C(=O)N[C@@H](CC(N)=O)C(=O)N[C@@H](CC(N)=O)C(N)=O)NC(=O)[C@H](CCC(N)=O)NC(=O)[C@H](Cc2c[nH]c3ccccc23)NC(=O)[C@H]([C@@H](C)O)NC(=O)[C@H](CCC(N)=O)NC1=O) [Ac-Leu-Cyclo-[[Abu]-QTWQC]-[Phe[4-(2-aminoethoxy)]]-[2-Nal]-[α-MeLys]-ENN-NH2]

Result:
["< 10 nM", "< 10 nM", "< 10 nM"]
